Reported TGI by item:
Tested on: SK-MEL-28 melanoma
ASSAY PROTOCOL: NCI tumour cell line growth inhibition, 48 h
MEASURED ATTRIBUTE: TGI

>>> measured("NC(=O)[C@H]1CCN(c2ncnc(N)c2F)C[C@@H]1N1CCC[C@@H](Nc2cc(Cl)cc(C(F)(F)F)c2)C1=O")
"44.3 µM"
>>> measured("O=C1C(Cl)=C(N/N=c2/[nH][nH]/c(=N/NC3=C(Cl)C(=O)c4ccccc4C3=O)c3ccccc23)C(=O)c2ccccc21")
"39 µM"
>>> measured("N#CSc1ncnc2nc[nH]c12")
"> 100 µM"
>>> measured("CC[C@H](Nc1nc(N)nc(C)c1C#N)c1nc2cccc(CN(C)c3ncc(C(=O)NO)cn3)c2c(=O)n1-c1ccccc1")
"3.16 µM"

---

Test system: HCT-116 colon
ASSAY PROTOCOL: NCI tumour cell line growth inhibition, 48 h
Below, each of the compounds is paired with its reported GI50 value.
MEASURED ATTRIBUTE: GI50

>>> measured("O=C1C(Cl)=C(N/N=c2/[nH][nH]/c(=N/NC3=C(Cl)C(=O)c4ccccc4C3=O)c3ccccc23)C(=O)c2ccccc21")
"14.3 µM"
>>> measured("COc1ccc2c(c1)CCC1C2CCC2(C)C1CCC2(O)CNC(=O)CCCCC1CCSS1 (centres undefined)")
"9.3 µM"
>>> measured("COc1ccccc1[N-]C(C1=C([O-])c2ccccc2C1=O)c1ccccc1.COc1ccccc1[N-]C(C1=C([O-])c2ccccc2C1=O)c1ccccc1.[Cu+2] (centres undefined)")
"3.26 µM"
>>> measured("N#CSc1ncnc2nc[nH]c12")
"3.04 µM"

---

Tested on: IGROV1 ovarian
ASSAY PROTOCOL: NCI tumour cell line growth inhibition, 48 h; in the data active means GI50 below about 0.43 µM; inactive means the rest
Labels: True = active, False = inactive

>>> qualitative_label("CCc1ccc(NC(=O)Nc2c[nH]c3ccccc23)cc1")
"False"
>>> qualitative_label("N#CC(C#N)=Cc1ccc(-c2ccc(-c3nc4ccccc4s3)cc2)o1")
"False"
>>> qualitative_label("CCN(CC)c1ccc(/C=C/c2cc(C)c3ccccc3n2)cc1")
"False"
>>> qualitative_label("CC1(C)CCC2(C(=O)OC3OC(CO)C(O)C(O)C3O)CC[C@]3(C)C(=CCC4C5(C)CC[C@H](OC6OC(C(=O)O)C(O)C(O)C6O)C(C)(C)C5CCC43C)C2C1 (some centres undefined)")
"False"
>>> qualitative_label("COc1cc2cc(C(=O)N3CC(CCl)c4c3cc(NC(=O)C(C)(C)c3ccccc3[N+](=O)[O-])c3ccccc43)[nH]c2c(OC)c1OC (centres undefined)")
"False"
>>> qualitative_label("COc1cc(Cn2cc3c(c2)-c2oncc2CC3)cc(OC)c1OC")
"True"
>>> qualitative_label("CN(C)c1ccc2nc3ccc(=[N+](C)C)cc-3oc2c1")
"False"
>>> qualitative_label("CCc1c(C)[nH]c(/C=C2\\N=C(c3ccc[nH]3)C=C2OC)c1C")
"True"
>>> qualitative_label("CSc1nnc(CCSc2ccnc3c(C(F)(F)F)cccc23)o1")
"False"

---

Test system: UACC-62 melanoma
ASSAY PROTOCOL: NCI tumour cell line growth inhibition, 48 h; in the data active means GI50 below about 0.43 µM; inactive means the rest
Outcome codes: active, inactive

>>> qualitative_label("CC1(C)CCC2(C(=O)OC3OC(CO)C(O)C(O)C3O)CC[C@]3(C)C(=CCC4C5(C)CC[C@H](OC6OC(C(=O)O)C(O)C(O)C6O)C(C)(C)C5CCC43C)C2C1 (some centres not stated)")
"inactive"
>>> qualitative_label("c1ccc2[nH]c(-c3ccc(N4CCN(c5ccc(-c6nc7ccccc7[nH]6)cc5)CC4)cc3)nc2c1")
"inactive"
>>> qualitative_label("O=C(CCN1CCCC1)Nc1ccc2c(NCc3ccc(F)cc3)c3ccccc3nc2c1")
"inactive"
>>> qualitative_label("N=C(N)c1nn(C2OC(CO)C(O)C2O)c2nc[nH]c(=O)c12 (configuration not stated)")
"inactive"
>>> qualitative_label("C=C(C)[C@@H]1CC=C(CO)CC1")
"inactive"
>>> qualitative_label("CCCN(Cc1ccc(F)cc1)c1ccc(CO)c(Cl)c1")
"active"
>>> qualitative_label("CC1=C(C(=O)OCc2ccccc2)C(c2ccc3c(c2)OCO3)n2c(nc3ccccc32)N1 (configuration not stated)")
"inactive"
>>> qualitative_label("N#CC(C#N)=Cc1ccc(-c2ccc(-c3nc4ccccc4s3)cc2)o1")
"inactive"
>>> qualitative_label("Nc1nc(/C=C\\c2ccc([N+](=O)[O-])o2)nc(N2CCN(c3ccccc3)CC2)n1")
"inactive"
>>> qualitative_label("CSc1nnc(CCSc2ccnc3c(C(F)(F)F)cccc23)o1")
"inactive"
>>> qualitative_label("CC12CCC=CC1CCC1C2CCC2(C)C(c3ccc(=O)oc3)CCC12O (configuration not stated)")
"active"
>>> qualitative_label("O=c1cc(CNc2cc(F)cc(F)c2)c2ccc(I)cc2[nH]1")
"inactive"

---

Test system: SK-MEL-28 melanoma
ASSAY PROTOCOL: NCI tumour cell line growth inhibition, 48 h
Recorded TGI values for a group of molecules are listed next.
MEASURED ATTRIBUTE: TGI

>>> measured("O=c1cc(CNc2cc(F)cc(F)c2)c2ccc(I)cc2[nH]1")
"> 100 µM"
>>> measured("COc1ccc(/C=C2\\OC(=O)C(Cl)=C2c2ccc(OC)cc2)cc1")
"> 100 µM"
>>> measured("CSC1=N[C@H](c2ccccc2)CS1")
"> 100 µM"
>>> measured("COC(=O)N1C[C@@]2(C=CC3(CC2)OCCO3)c2ccccc21")
"> 100 µM"
>>> measured("Cc1c(C#N)c2nnn(C)c(=O)n2c1-c1ccccc1")
"> 100 µM"
>>> measured("CCOC(=O)Cc1c[nH]c(=S)[nH]c1=O")
"> 100 µM"
>>> measured("O=C(O)CS(=O)(=O)C(c1ccccc1)c1ccccc1")
"> 100 µM"
>>> measured("CN(C(=O)C12C3C4C1C1C2C3C41I)C(C)(C)C (configuration not stated)")
"> 100 µM"
>>> measured("O=C(O)[C@@H]1C2CC([C@@H]1C(=O)O)[C@H](N1C(=O)CCC1=O)[C@@H]2Br (some centres not stated)")
"> 100 µM"
>>> measured("Oc1ccccc1/C=N/Nc1nnc2c3ccccc3c3ccccc3c2n1")
"> 100 µM"
>>> measured("C=C(C)[C@@H]1CC[C@]2(C(=O)NCCCN)CC[C@]3(C)[C@H](CC[C@@H]4[C@@]5(C)CC[C@H](O)C(C)(C)[C@@H]5CC[C@]43C)[C@@H]12")
"57.8 µM"
>>> measured("O=C(NCCCCCCNC(=O)c1cccc2ccccc12)c1cccc2ccccc12")
"> 100 µM"
>>> measured("c1csc(-c2cscc2-c2ccsc2)c1")
"> 100 µM"
>>> measured("CCOC(=O)NC(C(F)(F)F)(C(F)(F)F)P(=O)(OC(C)C)OC(C)C")
"> 100 µM"
>>> measured("NCC1(N2CCOCC2)C2CCCC21CO (configuration not stated)")
"> 100 µM"
>>> measured("CCOC(=O)c1ccc(C(=O)OCC)n1-c1cc2cc(c1)CSCc1cc(cc(-n3c(C(=O)OCC)ccc3C(=O)OCC)c1)CSC2")
"> 10 µM"
>>> measured("CC1(C)C(=O)N(O)C(C)(C)N1O")
"> 10 µM"
>>> measured("CCN1C(=O)N(CC)C2C1NN=c1s/c(=C3\\C(=O)N(C(C)C)c4ccccc43)c(=O)n12 (configuration not stated)")
"> 100 µM"
>>> measured("CCCN(Cc1ccc(F)cc1)c1ccc(CO)c(Cl)c1")
"27 µM"
>>> measured("O=P(O)(OCC(O)O)OCC(O)O")
"> 100 µM"
>>> measured("CN(C)c1ccc2c(NCCCCCCNc3ccnc4cc(N(C)C)ccc34)ccnc2c1")
"50.8 µM"
>>> measured("c1ccc(Nc2nnc(CSc3nc(-c4ccccc4)c(-c4ccccc4)[nH]3)s2)cc1")
"44.6 µM"

---

Test system: SR leukemia
ASSAY PROTOCOL: NCI tumour cell line growth inhibition, 48 h
MEASURED ATTRIBUTE: TGI

>>> measured("COc1cccc(C2=C(c3cn(C)c4ccccc34)C(=O)NC2=O)c1")
"> 25 µM"
>>> measured("COC(=O)c1[nH]c(=S)[nH]c(=O)c1-c1ccc(Cl)cc1")
"> 50 µM"
>>> measured("CC(C)=CCCC1(C)C=Cc2c(c(C)cc3c2[nH]c2cc(O)ccc23)O1 (stereo not given)")
"> 25 µM"
>>> measured("Cc1ccc(NCC2CC/C(=C\\c3ccc(Cl)cc3)C2=O)cc1 (stereo not given)")
"> 24 µM"
>>> measured("O=C(O)CS(=O)(=O)C(c1ccccc1)c1ccccc1")
"> 100 µM"
>>> measured("C=C(C)[C@@H]1CC[C@]2(C(=O)NCCCN)CC[C@]3(C)[C@H](CC[C@@H]4[C@@]5(C)CC[C@H](O)C(C)(C)[C@@H]5CC[C@]43C)[C@@H]12")
"> 100 µM"
>>> measured("COc1cc2c(/C=C3/C(=O)Nc4ccc(Cl)cc43)c(Cl)n(Cc3ccccc3)c2cc1C")
"5.9 µM"
>>> measured("Cc1nn2c(=O)c([N+](=O)[O-])c(/C=C/c3ccccc3)nc2s1")
"6.52 µM"
>>> measured("CC(=O)OC1c2ccccc2CC2(OC(C)=O)c3ccccc3C12 (stereo not given)")
"> 100 µM"
>>> measured("CN(C)CCCNC(=O)c1cc(NC(=O)CCNS(=O)(=O)c2ccc3c(c2)C(=O)c2ccccc2C3=O)cn1C")
"> 100 µM"
>>> measured("CC12CCC=CC1CCC1C2CCC2(C)C(c3ccc(=O)oc3)CCC12O (stereo not given)")
"0.11 µM"
>>> measured("COc1cc2c(cc1OC)-c1ccc3cc4c(cc3c1N(CCN1CCCC1)C2)OCO4")
"1.23 µM"
>>> measured("COc1ccc(/C=C(\\Cl)c2ccc(OC)c(OC)c2)cc1OC")
"> 100 µM"
>>> measured("Nc1cc(=O)[nH]c(SC2=NC(N)CC(O)C2)n1 (stereo not given)")
"> 100 µM"
>>> measured("CC(=O)OCC(=O)[C@@]1(O)CC[C@H]2[C@@H]3CCC4=CC(=O)[C@H](C)C[C@]4(C)[C@H]3[C@@H](O)C[C@@]21C")
"> 100 µM"
>>> measured("Cn1c(=O)c2[nH]c(/N=N/N3CCN(CCO)CC3)nc2n(C)c1=O")
"> 100 µM"
>>> measured("Fc1c(F)c(C(F)(F)F)c(F)c(F)c1N/N=C\\c1c[nH]c2ccccc12")
"9.19 µM"
>>> measured("NC(=O)c1cc2ccccc2oc1=Nc1ccccc1")
"> 100 µM"
>>> measured("O=C(CC1Sc2ccccc2NC1=O)Nc1cc(Cl)ccc1Cl (stereo not given)")
"82.1 µM"
>>> measured("Cc1ccc(C(=O)Nc2ccc(S(=O)(=O)O)c3cc(S(=O)(=O)O)cc(S(=O)(=O)O)c23)cc1NC(=O)c1cccc(N)c1")
"> 100 µM"

The values you see were collected from PubChem BioAssay (NCI).
